Data credit: ChEMBL document CHEMBL3286148

Assay: Tmax in Plasmodium falciparum 3D70087/N9 infected NODscidIL2Rgamma-null mouse at 10 mg/kg, po by LC-MS/MS analysis
Type: ADME, organism-based
Parameters: dose 10 mg/kg, route oral
Settings: in vivo
Endpoint Name: Tmax (h)

molecule="CC(Oc1ccc2nc(N)n(CC(O)c3ccc(C(F)(F)F)cc3Cl)c2n1)C(F)(F)F (racemic)" endpoint_name=Tmax readout_number=2

---

Test: Selectivity index, ratio of IC50 for human A549 cells to IC50 for Plasmodium falciparum
Type: toxicity, cell-based
Settings: read-out: Ratio IC50
The label t is reserved for selectivity ratio strictly under 200; f covers values equal to or above it.

compound="Nc1nc(C2CC2)cn1CC(O)c1ccc(Cl)cc1Cl (racemic)" label_class=f
compound="CC(Oc1ccc2nc(N)n(CC(O)c3ccc(C(F)(F)F)cc3Cl)c2n1)C(F)(F)F (racemic)" label_class=f
compound=Nc1nc2ccccc2n1-c1ccccc1O label_class=f
compound="Nc1nc(-c2ccc(F)cc2)cn1CC(O)c1ccc(C(F)(F)F)cc1Cl (racemic)" label_class=t
compound="Nc1nc2ccc(C3CC3)nc2n1CC(O)c1ccc(Cl)cc1Cl (racemic)" label_class=f
compound="NC1=Nc2ccccc2CN1CC(O)c1ccc(Cl)cc1Cl (racemic)" label_class=t
compound="Nc1ncccc1CC(O)c1cccc(Cl)c1Cl (racemic)" label_class=f
compound="Cc1nc(N)n(CC(O)c2ccc(Cl)cc2Cl)c1C (racemic)" label_class=f
